- testMethodNotes: qHTS assay to test for compound auto fluorescence at 460 nm (blue) in HepG2 cell free culture (AID 720685); also: % is scaled to controls: 0 for no effect and ±100 for the full control effect
- setupConditions: Cell-free culture medium, blue autofluorescence 405/460 nm; series mostly up to 91.3 µM
Activity calls are given as the source filed them. Calls follow the shape of the dose curve; as a rule, active = well fitted curve in the direction sought with a large enough effect in the repeat runs; inconclusive = weak or mixed curves; inactive = flat fitted curve, though single readings scatter.
resultType: fluorescence, % of fluorescent control

C=CC(=O)OCCC#N :: inactive
CC=O :: inactive
CC1=C(/C=C/C(C)=C/C=C/C(C)=C/C(=O)Nc2ccc(O)cc2)C(C)(C)CCC1 :: inactive
CCCCCCCC/C=C\CCCCCCCC(=O)NCc1ccc(O)c(OC)c1 :: inactive
Nc1ncnc2c1ncn2[C@@H]1O[C@H](COP(=O)(O)O)[C@@H](O)[C@H]1O :: inactive

Consider the record given below.
Req: Please report fluorescence, % of fluorescent control for the following molecule: Cc1cccc(C)c1NC(=O)CN1CCN(CCCC(c2ccc(F)cc2)c2ccc(F)cc2)CC1
Resp: -0.0263% [at 18.6 µM] (inactive)

----------
- testMethodNotes: qHTS assay to identify small molecule agonists of the sonic hedgehog signaling (Shh) pathway - cell viability counter screen (AID 1259366); also: nearly all actives have a fitted effect of over 50% in size
- setupConditions: NIH/3T3 Gli1-Luc viability, CellTiter-Fluor, 24 h; series mostly up to 92.4 µM
Records with an inconclusive call do not appear. The source made the active and inactive calls. Calls follow the shape of the dose curve; as a rule, active = well fitted cell-killing curve with a large enough effect in the repeat runs; inconclusive = weak or mixed curves, or effect the other way; inactive = flat fitted curve, though single readings scatter.
Assign a class; possible classes are Yes for active, No for inactive

Req: Returns: the outcome recorded for CN(C)CCOC(c1ccccc1)c1ccccc1 (tested in a mixture with another compound) in this assay.
Resp: No

Req: Could you please tell me the result logged for CCCOc1sc(C(=O)N2CCC(c3cc(CN)ccc3F)CC2)c(C)c1Br in this assay?
Resp: Yes

Req: // outcome(item) with item = OCCC(O)CO (stereo not drawn)
Resp: No

Req: Could you check what this test reported for O=C1NC2CCCCN2C12CCN(CCCN1c3ccccc3CCc3ccc(Cl)cc31)CC2 (stereo not drawn) ?
Resp: Yes

Req: What did this assay record as the result for O=C(O)CC(=O)O ?
Resp: No

Req: Entry O=C(O)CCCCCCC(=O)O : call = ?
Resp: No

Req: What did this assay record as the result for Cc1cccc(C)n1 ?
Resp: No

Req: # fetch the recorded call for CCCCCCCCCCCCCCCC here
Resp: No

Req: Write down the call the test reported for this compound. Item: CCO[Si](CCCSSSSCCC[Si](OCC)(OCC)OCC)(OCC)OCC
Resp: No

Req: Test call, this compound: Cc1cncc(C)c1
Resp: No

Req: Name the outcome recorded for CC(C)CCOCCC(C)C in the assay.
Resp: No

Req: Outcome? O=C1c2c(O)ccc(O)c2C(=O)c2c(NCCNCCO)ccc(NCCNCCO)c21
Resp: Yes

Req: # outcome recorded in this test, key = CCCCCCCCCCCCCOP(=O)(O)O
Resp: No

Req: Which outcome was entered for the compound NCCCC(O)(P(=O)(O)O)P(=O)(O)O in this test?
Resp: No

Req: How was CCCN(CCc1cccs1)[C@H]1CCc2c(O)cccc2C1 classified in this test?
Resp: No

Req: Record request — test call for CC1CCCCN1CCCOC(=O)c1ccc(OC2CCCCC2)cc1 (stereo not drawn)
Resp: No

Req: Outcome? CCCCCCCC/C=C\CCCCCCCC(=O)OCCOC(=O)CCCCCCC/C=C\CCCCCCCC
Resp: No

Req: Hello, I am checking results. What call was entered for COc1cc(C(=O)NS(=O)(=O)c2ccccc2C)ccc1Cc1cn(C)c2ccc(NC(=O)OC3CCCC3)cc12 ?
Resp: No

Req: Per the assay record, what outcome was assigned to COc1ccc(-n2nc(CCC(=O)N(C)O)cc2-c2ccc(Cl)cc2)cc1 ?
Resp: No

Req: Identify the outcome logged in this assay for the compound shown: COc1nccnc1CC(C)C
Resp: No

Req: Dear all, I need the recorded test outcome for CCC(C)c1ccccc1 (stereo not drawn) , thank you.
Resp: No

Req: Could you please tell me the result logged for COc1cccc(OC)c1O in this assay?
Resp: No

Req: // outcome(item) with item = CCCCCCCCCCCC(=O)N(CC)CC
Resp: No

Req: Which outcome was assigned to COC(=O)CC(C)CCC=C(C)C (stereo not drawn) in this test?
Resp: No

Req: Each compound tested received a call. Report the one for CC1(C)COCN1 .
Resp: No

Req: // outcome(item) with item = CN(C)CCCN1c2ccccc2Sc2ccc(C(F)(F)F)cc21
Resp: No

Req: Can you look up the reported call for CCOB(OCC)OCC for me?
Resp: No

Req: Tell me the assay call for Cc1cccc(N(C)C)c1 please.
Resp: No
